- assay-protocol: self-splicing fitness, log relative to wild type (ln ratio); higher = more splicing; Tetrahymena group I intron in knt gene, E. coli kanamycin selection, DiMSum; sequences stand for … in CUCUCU…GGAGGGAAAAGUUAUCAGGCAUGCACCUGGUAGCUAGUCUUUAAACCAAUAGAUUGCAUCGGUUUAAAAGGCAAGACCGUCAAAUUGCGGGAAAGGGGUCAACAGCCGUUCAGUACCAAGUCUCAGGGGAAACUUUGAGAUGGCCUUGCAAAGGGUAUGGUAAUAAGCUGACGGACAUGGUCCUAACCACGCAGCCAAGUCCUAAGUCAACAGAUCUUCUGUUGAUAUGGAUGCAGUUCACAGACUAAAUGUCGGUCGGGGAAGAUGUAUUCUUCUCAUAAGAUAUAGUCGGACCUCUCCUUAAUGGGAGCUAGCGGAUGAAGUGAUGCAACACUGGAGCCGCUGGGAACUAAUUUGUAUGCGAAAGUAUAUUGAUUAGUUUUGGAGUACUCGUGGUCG;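 further: selection with 25 µg/mL kanamycin versus none on LB agar overnight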
- experimental-conditions: 37 °C
measured-metric: self-splicing fitness (ln)
Number only, please.

IN: Quick one: self-splicing fitness (ln) for CGGAAGCAAUAUUACGGCUG ?
OUT: -1.36

IN: Quick one: self-splicing fitness (ln) for GCGCAGCAAUAUUACGGCUC ?
OUT: 0.47

IN: Quick one: self-splicing fitness (ln) for UCUUAGCAAUAUUACGUACU ?
OUT: -1.66

IN: Quick one: self-splicing fitness (ln) for UUGGAGCAAUAUUACGAGGG ?
OUT: -2.6

IN: Quick one: self-splicing fitness (ln) for CACCAGCAAUAUUACGUGAG ?
OUT: -2.26

IN: Quick one: self-splicing fitness (ln) for AAGGAGCAAUAUUACGUUGU ?
OUT: -2.53

IN: Quick one: self-splicing fitness (ln) for UUUUAGCAAUAUUACGGCAC ?
OUT: -0.642

IN: Quick one: self-splicing fitness (ln) for UGAUAGCAAUAUUACGUGUA ?
OUT: -1.38

IN: Quick one: self-splicing fitness (ln) for AUCUAGCAAUAUUACGUAAG ?
OUT: -1.16

IN: Quick one: self-splicing fitness (ln) for AACUAGCAAUAUUACGCUUU ?
OUT: -1.71

IN: Quick one: self-splicing fitness (ln) for GCCGAGCAAUAUUACGCCGU ?
OUT: -1.75

IN: Quick one: self-splicing fitness (ln) for UCUUAGCAAUAUUACGCUUA ?
OUT: -1.22

IN: Quick one: self-splicing fitness (ln) for GCCAAGCAAUAUUACGUCAC ?
OUT: -1.8

IN: Quick one: self-splicing fitness (ln) for CCCUAGCAAUAUUACGAUUG ?
OUT: -2.38

IN: Quick one: self-splicing fitness (ln) for GCCAAGCAAUAUUACGAAGA ?
OUT: -1.39

IN: Quick one: self-splicing fitness (ln) for CUUCAGCAAUAUUACGCGUA ?
OUT: -2.46

IN: Quick one: self-splicing fitness (ln) for GGAUAGCAAUAUUACGUGAU ?
OUT: -1.06

IN: Quick one: self-splicing fitness (ln) for GCCCAGCAAUAUUACGGAUU ?
OUT: -0.0391

IN: Quick one: self-splicing fitness (ln) for AGCGAGCAAUAUUACGGCCG ?
OUT: -1.72

IN: Quick one: self-splicing fitness (ln) for UGACAGCAAUAUUACGCUAU ?
OUT: -1.09

IN: Quick one: self-splicing fitness (ln) for UUCUAGCAAUAUUACGGGGC ?
OUT: -2.02

IN: Quick one: self-splicing fitness (ln) for ACUCAGCAAUAUUACGCUAC ?
OUT: -2.63

IN: Quick one: self-splicing fitness (ln) for UCACAGCAAUAUUACGCGGC ?
OUT: -2.5

IN: Quick one: self-splicing fitness (ln) for AUACAGCAAUAUUACGGAAC ?
OUT: -1.67

IN: Quick one: self-splicing fitness (ln) for GUUAAGCAAUAUUACGUGGG ?
OUT: -2.65

IN: Quick one: self-splicing fitness (ln) for CUGUAGCAAUAUUACGAAGC ?
OUT: -2.67

IN: Quick one: self-splicing fitness (ln) for CAUAAGCAAUAUUACGAUUG ?
OUT: -1.27

IN: Quick one: self-splicing fitness (ln) for UUCUAGCAAUAUUACGCCUU ?
OUT: -2.57

IN: Quick one: self-splicing fitness (ln) for UGAGAGCAAUAUUACGCACU ?
OUT: -2.02

IN: Quick one: self-splicing fitness (ln) for AAACAGCAAUAUUACGCCAA ?
OUT: -1.44

IN: Quick one: self-splicing fitness (ln) for UAGAAGCAAUAUUACGAGGU ?
OUT: -2.14

IN: Quick one: self-splicing fitness (ln) for AAGAAGCAAUAUUACGUUAG ?
OUT: -2.77

IN: Quick one: self-splicing fitness (ln) for GGCUAGCAAUAUUACGCGCU ?
OUT: -2.42

IN: Quick one: self-splicing fitness (ln) for GUGCAGCAAUAUUACGUGGA ?
OUT: -2.24
